Exercise: for every item that follows, state its recorded growth.
System: SF-295 CNS
protocolText: NCI-60 one-dose screen, 48 h (100 = growth as untreated, 0 = no growth, -100 = all killed)
assayConditions: 10 µM unless noted
The panel holds about 83,000 compounds, 20% with a hit somewhere; the sample as a whole holds those more often.
One number for each entry, in %.

INSERT INTO measurements (chemsmiles, property, datavalue) VALUES
  ('C=C(CNCCc1ccc(O)cc1)[C@@H]1CC[C@]2(CO)CC[C@]3(C)[C@H](CC[C@@H]4[C@@]5(C)CCC(=O)C(C)(C)[C@@H]5CC[C@]43C)[C@@H]12', 'growth', 84.2),
  ('CCn1cc(CNc2ccc(C(=O)Nc3cc4cc(OC)c(OC)cc4c(C)n3)cc2)cn1', 'growth', 60.4),
  ('CN(C)c1ccc(/C=C(\C#N)c2cc3ccccc3[nH]2)cc1', 'growth', 8.98),
  ('O=C1NC(=O)/C(=C/c2c(-c3ccccc3)nc3sc(COc4ccccc4)nn23)S1', 'growth', 94.3),
  ('O=C(Nc1ncc(Cc2cc(C(F)(F)F)ccc2Cl)s1)c1cccs1', 'growth', 41),
  ('O=c1c2c3c(sc2n2c(-c4cc(-c5ccccc5)no4)nnc2n1Cc1ccccc1)CCCC3', 'growth', 83.4),
  ('CCNC(=O)Oc1ccc(/C(=C(/CC)Cc2ccccc2)c2ccc(OCCN3CCCC3)cc2)cc1', 'growth', 102);

growth for Cc1ccc(/C=C/C(=O)c2ccc(-n3cc(CN4CCN(c5cc6c(cc5F)c(=O)c(C(=O)O)cn6C5CC5)CC4)nn3)cc2)cc1 is 86.9
